- target.or.system: monomeric alpha-synuclein, P37840
- protocol.description: SPR, captured mAb
- condition.context: remark: other sources report otherwise
assay.endpoint: koff (s⁻¹)
The reply should contain only the number, in s⁻¹.

{"binder": "ACI-7067-1106A8-Ab2 (antibody, V domains shown) VH: EVQLVESGGGLVQPKGSLKLSCAASGFTFNTYAMHWVRQAPGKGLEWVARIRSKGSNYATNYADSVKDRFTISRDDSQSMLYLQMNNLKTEDTAMYYCVRGHGSSYFSYWGQGTLVTVSA VL: QIVLTQSPAIMSASPGEKVTMTCSASSSVSYMHWYQQKSGTSPKRWIYDTSNLASGVPARFSGSGSGTSYSLTISSMEAEDAATYYCQQWNSHPPTFGAGTKLELK", "assay.endpoint": "koff", "unit.symbol": "s⁻¹", "obs.value": 0.005}

Now for the binder whose koff we want.
Ask: Bench note: what koff did ACI-8033-18C11-Ab1 (antibody, V domains shown) VH: QVQLQQPGAELVKPGASVKMSCKAAGYTFSSYWITWVRQRPGQGLDWIGDIYPGGGVTNYNEKFKTKATLTVDTSSSTAYMQLSSLTSEDSAVYYCATAQTTFAYWGQGTLVTVSA VL: DVLMTQTPLSLPVSLGDQASISCRSSQNIVHNNGNTYLEWYLQKPGQSPKLLIYKVSNRFSGVPDRFSGSGSGTDFTLKISRVEAEDLGVYYCFQGSHVPRTFGGGTKLEIK show?
Result: 0.000263

The measured values listed here are drawn from patent US20250340623A1.
